Ref: patent US7956053B2

Known inhibition at 10 µM of a selection of compounds
experimentalSystem: KDR (Homo sapiens)
Sequence (P35968 20-1356): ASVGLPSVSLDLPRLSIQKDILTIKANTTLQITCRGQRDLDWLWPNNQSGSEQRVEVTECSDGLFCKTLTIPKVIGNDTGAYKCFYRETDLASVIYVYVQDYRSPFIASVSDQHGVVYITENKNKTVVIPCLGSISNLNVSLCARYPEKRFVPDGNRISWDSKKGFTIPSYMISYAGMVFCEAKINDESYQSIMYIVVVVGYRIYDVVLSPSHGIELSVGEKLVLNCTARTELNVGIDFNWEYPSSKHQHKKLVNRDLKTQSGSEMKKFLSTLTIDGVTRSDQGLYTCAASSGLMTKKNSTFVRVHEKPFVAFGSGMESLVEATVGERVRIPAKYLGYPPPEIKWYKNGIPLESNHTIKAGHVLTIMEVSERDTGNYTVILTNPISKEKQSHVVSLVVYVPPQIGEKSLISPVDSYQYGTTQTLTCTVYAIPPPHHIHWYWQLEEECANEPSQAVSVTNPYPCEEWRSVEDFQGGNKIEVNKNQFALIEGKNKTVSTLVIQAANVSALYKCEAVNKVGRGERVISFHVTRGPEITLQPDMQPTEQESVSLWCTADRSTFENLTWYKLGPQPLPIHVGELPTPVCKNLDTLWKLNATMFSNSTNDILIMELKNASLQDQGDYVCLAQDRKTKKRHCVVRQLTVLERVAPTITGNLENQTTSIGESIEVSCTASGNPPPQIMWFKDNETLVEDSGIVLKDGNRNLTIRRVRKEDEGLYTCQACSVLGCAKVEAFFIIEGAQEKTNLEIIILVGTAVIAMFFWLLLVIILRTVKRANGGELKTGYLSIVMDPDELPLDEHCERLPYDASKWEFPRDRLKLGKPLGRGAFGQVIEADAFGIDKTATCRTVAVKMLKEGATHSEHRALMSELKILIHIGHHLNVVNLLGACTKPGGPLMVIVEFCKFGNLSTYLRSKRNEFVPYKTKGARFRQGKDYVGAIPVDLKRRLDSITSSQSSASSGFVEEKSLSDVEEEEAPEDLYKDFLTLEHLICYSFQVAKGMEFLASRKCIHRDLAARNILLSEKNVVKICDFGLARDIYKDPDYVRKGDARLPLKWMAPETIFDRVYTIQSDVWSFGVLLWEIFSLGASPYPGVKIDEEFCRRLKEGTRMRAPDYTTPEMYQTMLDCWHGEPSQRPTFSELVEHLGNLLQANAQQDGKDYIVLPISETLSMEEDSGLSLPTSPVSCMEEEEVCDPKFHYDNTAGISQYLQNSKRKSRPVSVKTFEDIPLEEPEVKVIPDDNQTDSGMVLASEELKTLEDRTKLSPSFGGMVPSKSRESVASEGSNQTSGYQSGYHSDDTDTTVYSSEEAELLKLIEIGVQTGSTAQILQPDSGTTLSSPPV
measurementDescription: Enzymatic KDR in vitro inhibition
Type: biochemical
Record the value in %, omitting the unit from your answer.

smiles: COCCNC(=O)c1ccc(C)c(Nc2nccc(-c3cccnc3)n2)c1
experimentalSystem: KDR (Homo sapiens)
measure: inhibition at 10 µM
unit: %
measured: 33
//
smiles: Cc1ccc(C(=O)N2CCOCC2)cc1Nc1nccc(-c2cccnc2)n1
experimentalSystem: KDR (Homo sapiens)
measure: inhibition at 10 µM
unit: %
measured: 47
//
smiles: COC(=O)CNC(=O)c1ccc(C)c(Nc2nccc(-c3cccnc3)n2)c1
experimentalSystem: KDR (Homo sapiens)
measure: inhibition at 10 µM
unit: %
measured: 51

Returns the measured inhibition at 10 µM for the input compound. Input: `Cc1ccc(C(=O)Nc2ccc(CN3CCN(C)CC3)cc2)cc1Nc1nccc(-c2cccnc2)n1` 73

Returns the measured inhibition at 10 µM for the input compound. Input: `Cc1ccc(C(=O)NCC(N)=O)cc1Nc1nccc(-c2cccnc2)n1` 56

Returns the measured inhibition at 10 µM for the input compound. Input: `Cc1ccc(C(=O)N[C@H]2CCCCNC2=O)cc1Nc1nccc(-c2cccnc2)n1` 54

Returns the measured inhibition at 10 µM for the input compound. Input: `Cc1ccc(C(=O)N2CCC(NC(=O)c3ccccc3)CC2)cc1Nc1nccc(-c2cccnc2)n1` 89

Returns the measured inhibition at 10 µM for the input compound. Input: `Cc1ccc(C(=O)N[C@@H](Cc2ccccc2)C(=O)OC(C)(C)C)cc1Nc1nccc(-c2cccnc2)n1` 37
